Protocol text: Solubility of BPR0C261 in different carriers or mixed carriers
Assay type: physicochemical
Experimental setup: organic solvent or mixture; carrier 11: TPGS (40%), Transcutol (20%), and PEG 400 (40%); room temperature

Compound | solubility
Cc1cc(Cn2cc(C(=O)C(=O)Nc3cc(C)ns3)c3ccccc32)on1 [BPR0C261] | ~50 mg/mL

###

Protocol text: Solubility of BPR0C261 in different carriers or mixed carriers
Assay type: physicochemical
Experimental setup: aqueous with cosolvent or surfactant or cyclodextrin; carrier 3: DMSO (20%), Tween 80 (10%), and DDW (70%); room temperature
Measurement kind: solubility

Smiles code | Measurement kind | Reported
Cc1cc(Cn2cc(C(=O)C(=O)Nc3cc(C)ns3)c3ccccc32)on1 | solubility | < 5000 µg/mL

###

Protocol text: Solubility of BPR0C261 in different carriers or mixed carriers
Type: physicochemical
Experimental setup: organic solvent or mixture; carrier 12: TPGS (75%) and Transcutol (25%); room temperature

Smiles code | solubility
Cc1cc(Cn2cc(C(=O)C(=O)Nc3cc(C)ns3)c3ccccc32)on1 | ~50 mg/mL

###

Protocol text: Solubility of BPR0C261 in different carriers or mixed carriers
Format: physicochemical
Experimental setup: organic solvent or mixture; carrier 6: TPGS (20%) and PEG 400 (80%); room temperature
Measurement kind: solubility

Compound | Measurement kind | Reported
Cc1cc(Cn2cc(C(=O)C(=O)Nc3cc(C)ns3)c3ccccc32)on1 [BPR0C261] | solubility | 10 to 30 mg/mL

###

Protocol text: Solubility of BPR0C261 in different carriers or mixed carriers
Type: physicochemical
Experimental setup: organic solvent or mixture; carrier 5: Glycerol (5%) and PEG 400 (95%); room temperature
Measurement kind: solubility

Molecule | Reported
Cc1cc(Cn2cc(C(=O)C(=O)Nc3cc(C)ns3)c3ccccc32)on1 [BPR0C261] | 10 to 30 mg/mL

###

Protocol text: Solubility of BPR0C261 in different carriers or mixed carriers
Type: physicochemical
Experimental setup: aqueous with cosolvent or surfactant or cyclodextrin; carrier 13: DMSO (5%), Cremophor EL (25%), and DDW (70%); room temperature
Measurement kind: solubility

Smiles code | Reported
Cc1cc(Cn2cc(C(=O)C(=O)Nc3cc(C)ns3)c3ccccc32)on1 | < 5000 µg/mL

###

Protocol text: Solubility of BPR0C261 in different carriers or mixed carriers
Assay type: physicochemical
Experimental setup: aqueous with cosolvent or surfactant or cyclodextrin; carrier 14: Methylcellulose (1%), Tween 80 (2%), PEG 400 (10%), and DDW (87%); room temperature
Procedure: The solubility of BPR0C261 in different drug carriers or mixed carriers was evaluated. The solubility is defined as the maximum amount of a compound dissolved in a carrier or mixed carrier at room temperature.

Smiles code | solubility
Cc1cc(Cn2cc(C(=O)C(=O)Nc3cc(C)ns3)c3ccccc32)on1 | < 1000 µg/mL

###

Protocol text: Solubility of BPR0C261 in different carriers or mixed carriers
Assay type: physicochemical
Experimental setup: carrier 1: Double distilled water (DDW); room temperature
Measurement kind: solubility

Smiles code | Measurement kind | Reported
Cc1cc(Cn2cc(C(=O)C(=O)Nc3cc(C)ns3)c3ccccc32)on1 | solubility | ~0.12 µg/mL

###

Protocol text: Oral bioavailability of BPR0C261 (po vs IV PK profiles, plasma by HPLC-Tandem Mass spectrometry)
Assay type: in vivo
Experimental setup: mouse, 2 mg/kg, po by gavage, formulations containing TPGS, Transcutol, and optionally PEG 400, vs IV 2 mg/Kg, read-out: Oral bioavailability (F %)

Molecule | bioavailability
Cc1cc(Cn2cc(C(=O)C(=O)Nc3cc(C)ns3)c3ccccc32)on1 [BPR0C261] | 25 to 80%
